# System: 958667-338-R-J2-PDC tumor spheroids viability
# Experiment: Anticancer human tumor 958667-338-R-J2-PDC patient-derived colon adenocarcinoma cell line growth inhibition [PI3K]
# Study conditions: curve of first compound; second compound 0.1 µM; spheroids with HUVEC and MSC
Metric name: IC50

Some molecules with recorded IC50:
[
  {
    "Molecule": "CC(C)NCC(C(=O)N1CCN(c2ncnc3c2C(C)CC3O)CC1)c1ccc(Cl)cc1 (stereo unspecified) + COc1c(OCCCN2CCOCC2)ccc2c3n(c(=NC(=O)c4cnc(N)nc4)nc12)CCN3",
    "Observed value": "4020 nM"
  },
  {
    "Molecule": "Cn1cnc2c(F)c(Nc3ccc(Br)cc3Cl)c(C(=O)NOCCO)cc21 + CC(Nc1ccc2c(c1)OCCn1cc(N3C(=O)OCC3C(F)F)nc1-2)C(N)=O",
    "Observed value": "87.5 nM"
  },
  {
    "Molecule": "CC(C)NCC(C(=O)N1CCN(c2ncnc3c2C(C)CC3O)CC1)c1ccc(Cl)cc1 (stereo unspecified) + Cc1nc(NC(=O)N2CCCC2C(N)=O)sc1-c1ccnc(C(C)(C)C(F)(F)F)c1",
    "Observed value": "> 10000 nM"
  },
  {
    "Molecule": "CNC(=O)c1ccc(N2C(=S)N(c3ccc(C#N)c(C(F)(F)F)c3)C(=O)C2(C)C)cc1F + CC(Nc1ccc2c(c1)OCCn1cc(N3C(=O)OCC3C(F)F)nc1-2)C(N)=O",
    "Observed value": "> 10000 nM"
  },
  {
    "Molecule": "Cn1ncc(Cl)c1-c1cc(C(=O)NC(CN)Cc2cccc(F)c2)sc1Cl (stereo unspecified) + COc1c(OCCCN2CCOCC2)ccc2c3n(c(=NC(=O)c4cnc(N)nc4)nc12)CCN3",
    "Observed value": "696 nM"
  }
]

Query :: Bench note: what IC50 did Cn1cnc2c(F)c(Nc3ccc(Br)cc3Cl)c(C(=O)NOCCO)cc21 + COc1c(OCCCN2CCOCC2)ccc2c3n(c(=NC(=O)c4cnc(N)nc4)nc12)CCN3 show?
Result :: 20.6 nM

###

Items are presented alongside their recorded viability, T/C.
# Test system: 958667-338-R-J2-PDC tumor spheroids viability
# Experiment: Anticancer human tumor 958667-338-R-J2-PDC cell line growth inhibition [PI3K];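 note: spheroids exposed to compounds for seven days before readout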
# Study conditions: second compound 0.316 µM; first compound 0.03 µM; stronger effect = lower value; spheroids with HUVEC and MSC
Kindly answer with a numeric value in %, unit omitted.

Query :: Bench note: what viability, T/C did Cn1cnc2c(F)c(Nc3ccc(Br)cc3Cl)c(C(=O)NOCCO)cc21 + CC(Nc1ccc2c(c1)OCCn1cc(N3C(=O)OCC3C(F)F)nc1-2)C(N)=O show?
Result :: 59.5

Query :: Proceed to Cn1cnc2c(F)c(Nc3ccc(Br)cc3Cl)c(C(=O)NOCCO)cc21 + COc1c(OCCCN2CCOCC2)ccc2c3n(c(=NC(=O)c4cnc(N)nc4)nc12)CCN3
Result :: 25.5

Query :: Proceed to Cn1cnc2c(F)c(Nc3ccc(Br)cc3Cl)c(C(=O)NOCCO)cc21 + Cc1nc(NC(=O)N2CCCC2C(N)=O)sc1-c1ccnc(C(C)(C)C(F)(F)F)c1
Result :: 69

Query :: Proceed to Cn1cnc2c(F)c(Nc3ccc(Br)cc3Cl)c(C(=O)NOCCO)cc21 + CC(Nc1ncnc2nc[nH]c12)c1cc2cccc(Cl)c2c(=O)n1-c1ccccc1
Result :: 97.4

###

Items are presented alongside their recorded viability, T/C.
# System: 958667-338-R-J2-PDC tumor spheroids viability
# Experiment: Anticancer human tumor 958667-338-R-J2-PDC cell line growth inhibition [PI3K];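 note: spheroids exposed to compounds for seven days before readout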
# Study conditions: second compound 3.16 µM; first compound 0.000316 µM; stronger effect = lower value; spheroids with HUVEC and MSC

[
  {
    "Compound": "CC(=O)c1c(C)c2cnc(Nc3ccc(N4CCNCC4)cn3)nc2n(C2CCCC2)c1=O + CC(Nc1ncnc2nc[nH]c12)c1cc2cccc(Cl)c2c(=O)n1-c1ccccc1",
    "Metric name": "viability, T/C",
    "Observed value": "108%"
  },
  {
    "Compound": "Cn1ncnc1[C@H]1c2n[nH]c(=O)c3cc(F)cc(c23)N[C@@H]1c1ccc(F)cc1 + CC(Nc1ncnc2nc[nH]c12)c1cc2cccc(Cl)c2c(=O)n1-c1ccccc1",
    "Metric name": "viability, T/C",
    "Observed value": "107%"
  },
  {
    "Compound": "CC(C)n1nc(-c2ccc3oc(N)nc3c2)c2c(N)ncnc21 + Cc1nc(NC(=O)N2CCCC2C(N)=O)sc1-c1ccnc(C(C)(C)C(F)(F)F)c1",
    "Metric name": "viability, T/C",
    "Observed value": "72%"
  },
  {
    "Compound": "Cn1ncnc1[C@H]1c2n[nH]c(=O)c3cc(F)cc(c23)N[C@@H]1c1ccc(F)cc1 + Cc1nc(NC(=O)N2CCCC2C(N)=O)sc1-c1ccnc(C(C)(C)C(F)(F)F)c1",
    "Metric name": "viability, T/C",
    "Observed value": "78.4%"
  },
  {
    "Compound": "CC(=O)c1c(C)c2cnc(Nc3ccc(N4CCNCC4)cn3)nc2n(C2CCCC2)c1=O + Cc1nc(NC(=O)N2CCCC2C(N)=O)sc1-c1ccnc(C(C)(C)C(F)(F)F)c1",
    "Metric name": "viability, T/C",
    "Observed value": "72%"
  }
]

--- query ---
Query :: Fill in the recorded viability, T/C for this compound, with 958667-338-R-J2-PDC tumor spheroids viability as test system: CC(C)n1nc(-c2ccc3oc(N)nc3c2)c2c(N)ncnc21 + CC(Nc1ncnc2nc[nH]c12)c1cc2cccc(Cl)c2c(=O)n1-c1ccccc1
Result :: 86%

###

Items are presented alongside their recorded viability, T/C.
# System: 958667-338-R-J2-PDC tumor spheroids viability
# Experiment: Anticancer human tumor 958667-338-R-J2-PDC cell line growth inhibition [PI3K];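 note: spheroids exposed to compounds for seven days before readout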
# Study conditions: second compound 1 µM; first compound 0.03 µM; stronger effect = lower value; spheroids with HUVEC and MSC
Kindly answer with a numeric value in %, unit omitted.

Some molecules with recorded viability, T/C:
[
  {
    "Molecule": "Cn1cnc2c(F)c(Nc3ccc(Br)cc3Cl)c(C(=O)NOCCO)cc21 + CC(Nc1ncnc2nc[nH]c12)c1cc2cccc(Cl)c2c(=O)n1-c1ccccc1",
    "Unit annotation": "%",
    "viability, T/C": 83.5
  },
  {
    "Molecule": "Cn1cnc2c(F)c(Nc3ccc(Br)cc3Cl)c(C(=O)NOCCO)cc21 + COc1c(OCCCN2CCOCC2)ccc2c3n(c(=NC(=O)c4cnc(N)nc4)nc12)CCN3",
    "Unit annotation": "%",
    "viability, T/C": 10.8
  },
  {
    "Molecule": "Cn1cnc2c(F)c(Nc3ccc(Br)cc3Cl)c(C(=O)NOCCO)cc21 + CC(Nc1ccc2c(c1)OCCn1cc(N3C(=O)OCC3C(F)F)nc1-2)C(N)=O",
    "Unit annotation": "%",
    "viability, T/C": 43
  }
]

--- query ---
Query :: Bench note: what viability, T/C did Cn1cnc2c(F)c(Nc3ccc(Br)cc3Cl)c(C(=O)NOCCO)cc21 + Cc1nc(NC(=O)N2CCCC2C(N)=O)sc1-c1ccnc(C(C)(C)C(F)(F)F)c1 show?
Result :: 63

###

# Test system: 958667-338-R-J2-PDC tumor spheroids viability
# Experiment: Anticancer human tumor 958667-338-R-J2-PDC cell line growth inhibition [PI3K];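 note: spheroids exposed to compounds for seven days before readout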
# Study conditions: second compound 0.00316 µM; first compound 0.0316 µM; stronger effect = lower value; spheroids with HUVEC and MSC
Items are presented alongside their recorded viability, T/C.
Kindly answer with a numeric value in %, unit omitted.

Some compounds with recorded viability, T/C:
[
  {
    "Compound": "Cn1ncnc1[C@H]1c2n[nH]c(=O)c3cc(F)cc(c23)N[C@@H]1c1ccc(F)cc1 + COc1c(OCCCN2CCOCC2)ccc2c3n(c(=NC(=O)c4cnc(N)nc4)nc12)CCN3",
    "viability, T/C (%)": 87.8
  },
  {
    "Compound": "CC(C)n1nc(-c2ccc3oc(N)nc3c2)c2c(N)ncnc21 + CC(Nc1ccc2c(c1)OCCn1cc(N3C(=O)OCC3C(F)F)nc1-2)C(N)=O",
    "viability, T/C (%)": 80.8
  }
]

Query :: Bench note: what viability, T/C did Cn1ncc(Cl)c1-c1cc(C(=O)NC(CN)Cc2cccc(F)c2)sc1Cl (stereo not drawn) + COc1c(OCCCN2CCOCC2)ccc2c3n(c(=NC(=O)c4cnc(N)nc4)nc12)CCN3 show?
Result :: 89.1

###

# Tested on: 958667-338-R-J2-PDC tumor spheroids viability
# Experiment: Anticancer human tumor 958667-338-R-J2-PDC cell line growth inhibition [PI3K];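 note: spheroids exposed to compounds for seven days before readout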
# Study conditions: second compound 0.1 µM; first compound 3 µM; stronger effect = lower value; spheroids with HUVEC and MSC
Metric name: viability, T/C (%)
Kindly answer with a numeric value in %, unit omitted.

Query :: Bench note: what viability, T/C did Cn1cnc2c(F)c(Nc3ccc(Br)cc3Cl)c(C(=O)NOCCO)cc21 + COc1c(OCCCN2CCOCC2)ccc2c3n(c(=NC(=O)c4cnc(N)nc4)nc12)CCN3 show?
Result :: 2.61

Query :: Proceed to Cn1cnc2c(F)c(Nc3ccc(Br)cc3Cl)c(C(=O)NOCCO)cc21 + CC(Nc1ncnc2nc[nH]c12)c1cc2cccc(Cl)c2c(=O)n1-c1ccccc1
Result :: 20.3

Query :: Proceed to Cn1cnc2c(F)c(Nc3ccc(Br)cc3Cl)c(C(=O)NOCCO)cc21 + CC(Nc1ccc2c(c1)OCCn1cc(N3C(=O)OCC3C(F)F)nc1-2)C(N)=O
Result :: 8.31

Query :: Proceed to Cn1cnc2c(F)c(Nc3ccc(Br)cc3Cl)c(C(=O)NOCCO)cc21 + Cc1nc(NC(=O)N2CCCC2C(N)=O)sc1-c1ccnc(C(C)(C)C(F)(F)F)c1
Result :: 12.7
